Test system: R11-AMACH smooth pigweed
Assay: Greenhouse screen of ALS-inhibiting herbicides on resistant smooth pigweed biotype
Type: in vivo, Amaranthus hybridus L.
Conditions: rate 1/10×, 3 WAT, compared to untreated plant biomass
assay-endpoint: Biomass Reduction (%)
Give a bare numeral; the unit % is implied.

Asked: If you can, please state the reported Biomass Reduction value of COc1nc(C)nc(NC(=O)NS(=O)(=O)c2ccsc2C(=O)O)n1 [thifensulfuron] .
Given back: −17.1

Asked: For CCOc1nc(F)cc2nc(S(=O)(=O)Nc3c(Cl)cccc3C(=O)OC)nn12 [cloransulammethyl] , what is its reported Biomass Reduction?
Given back: 24.7

Asked: Tell me the measured Biomass Reduction of COc1cc(OC)nc(Sc2cccc(Cl)c2C(=O)O)n1 [pyrithiobac] , please.
Given back: 36.3

Asked: Name the recorded Biomass Reduction for CCc1cnc(C2=NC(C)(C(C)C)C(=O)N2)c(C(=O)O)c1 (centres unmarked) [imazethapyr] .
Given back: 21.1

Asked: Need Biomass Reduction of COc1cc(Cl)nc(NC(=O)NS(=O)(=O)c2ccccc2C(=O)O)n1 [chlorimuron] , thanks.
Given back: 3.7

* * *

Exercise: for every item that follows, state its recorded Height.
Tested on: S-AMACH smooth pigweed
Assay: Greenhouse screen of ALS-inhibiting herbicides on susceptible smooth pigweed biotype
Type: in vivo, Amaranthus hybridus L.
Conditions: rate 1/100×, 3 WAT
Numeric answer only, unit cm assumed.

Asked: What value of measured Height is listed for COc1cc(Cl)nc(NC(=O)NS(=O)(=O)c2ccccc2C(=O)O)n1 ?
Given back: 27.8

Asked: Entry COc1cc(OC)nc(Sc2cccc(Cl)c2C(=O)O)n1 has what Height?
Given back: 21.8

Asked: Which value of Height has been reported for CCOc1nc(F)cc2nc(S(=O)(=O)Nc3c(Cl)cccc3C(=O)OC)nn12 in the records?
Given back: 0.7

Asked: Height lookup needed for CCc1cnc(C2=NC(C)(C(C)C)C(=O)N2)c(C(=O)O)c1 (centres unmarked) , thanks.
Given back: 25.3

Asked: Given the compound COc1nc(C)nc(NC(=O)NS(=O)(=O)c2ccsc2C(=O)O)n1 , what is its reported Height?
Given back: 25.0

* * *

For each entry below, report its Height value.
Test system: R11-AMACH smooth pigweed
Experiment: Greenhouse screen of ALS-inhibiting herbicides on resistant smooth pigweed biotype
Type: in vivo, Amaranthus hybridus L.
Settings: rate 10×, 3 WAT
Write the answer as a number in cm, unit excluded.

Asked: Return reported Height; argument: CCc1cnc(C2=NC(C)(C(C)C)C(=O)N2)c(C(=O)O)c1 (centres unmarked)
Given back: 6.8

Asked: Recorded Height of COc1nc(C)nc(NC(=O)NS(=O)(=O)c2ccsc2C(=O)O)n1 , please.
Given back: 15.8

Asked: Suppose we examine the compound CCOc1nc(F)cc2nc(S(=O)(=O)Nc3c(Cl)cccc3C(=O)OC)nn12 ; what Height value has been reported?
Given back: 32.0

Asked: I'd like to know its Height. The compound in question is COc1cc(OC)nc(Sc2cccc(Cl)c2C(=O)O)n1
Given back: 11.0

Asked: // Height lookup, key: COc1cc(Cl)nc(NC(=O)NS(=O)(=O)c2ccccc2C(=O)O)n1
Given back: 23.5

* * *

Test system: S-AMACH smooth pigweed
Test: Greenhouse screen of ALS-inhibiting herbicides on susceptible smooth pigweed biotype
Format: in vivo, Amaranthus hybridus L.
Conditions: rate 1/100×, 3 WAT, scale 0-99%
Excerpt: Seeds from a smooth pigweed (Aniaranthus hybridus L.) population (R11-AMACH) were collected from a field in southeastern Pennsylvania where extreme ALS-inhibitor herbicide selection pressure was imposed over a several year period within continuous soybean production. R11-AMACH was selected naturally with ALS-inhibiting herbicides representative of the SU, IMI, and TP herbicide chemistries. […]
Field: Visual Control. Provide a value for each of the molecules that follow.
Express your answer in %, writing the number without its unit.

Asked: Report Visual Control for COc1nc(C)nc(NC(=O)NS(=O)(=O)c2ccsc2C(=O)O)n1 please.
Given back: 22

Asked: Data request, read-out Visual Control, for COc1cc(Cl)nc(NC(=O)NS(=O)(=O)c2ccccc2C(=O)O)n1
Given back: 9

Asked: Using the record for CCc1cnc(C2=NC(C)(C(C)C)C(=O)N2)c(C(=O)O)c1 (centres unmarked) , report its Visual Control.
Given back: 12

Asked: What does the data say about its Visual Control? Entry: COc1cc(OC)nc(Sc2cccc(Cl)c2C(=O)O)n1
Given back: 16

Asked: // Visual Control lookup, key: CCOc1nc(F)cc2nc(S(=O)(=O)Nc3c(Cl)cccc3C(=O)OC)nn12
Given back: 97

* * *

System: R11-AMACH smooth pigweed
Experiment: Greenhouse screen of ALS-inhibiting herbicides on resistant smooth pigweed biotype
Assay type: in vivo, Amaranthus hybridus L.
Settings: rate 1× (normal use rate), 3 WAT, scale 0-99%
assay-endpoint: Visual Control

Asked: What Visual Control appears in the records for this compound with R11-AMACH smooth pigweed? COc1cc(Cl)nc(NC(=O)NS(=O)(=O)c2ccccc2C(=O)O)n1 [chlorimuron]
Given back: 15%

Asked: Please state recorded Visual Control (tested on R11-AMACH smooth pigweed) of COc1nc(C)nc(NC(=O)NS(=O)(=O)c2ccsc2C(=O)O)n1 [thifensulfuron]
Given back: 22%

Asked: Notebook: pull reported Visual Control for R11-AMACH smooth pigweed, entry COc1cc(OC)nc(Sc2cccc(Cl)c2C(=O)O)n1 [pyrithiobac]
Given back: 30%

Asked: Reported Visual Control for R11-AMACH smooth pigweed, given CCc1cnc(C2=NC(C)(C(C)C)C(=O)N2)c(C(=O)O)c1 (centres unmarked) [imazethapyr] ?
Given back: 16%

Asked: Please provide the recorded Visual Control for CCOc1nc(F)cc2nc(S(=O)(=O)Nc3c(Cl)cccc3C(=O)OC)nn12 [cloransulammethyl] , tested on R11-AMACH smooth pigweed.
Given back: 16%

* * *

Tested on: S-AMACH smooth pigweed
Test: Greenhouse screen of ALS-inhibiting herbicides on susceptible smooth pigweed biotype
Assay type: in vivo, Amaranthus hybridus L.
Conditions: rate 10×, 3 WAT, compared to untreated plant biomass
Provide the reported Biomass Reduction of each item.
Express the result in % but write the number alone.

Asked: Dear colleague, I am looking for the recorded Biomass Reduction of the following molecule: COc1cc(OC)nc(Sc2cccc(Cl)c2C(=O)O)n1 [pyrithiobac]
Given back: 96.5

Asked: Param item = CCOc1nc(F)cc2nc(S(=O)(=O)Nc3c(Cl)cccc3C(=O)OC)nn12 [cloransulammethyl] ; retrieve measured Biomass Reduction.
Given back: 100.0

Asked: Which Biomass Reduction value is on record for CCc1cnc(C2=NC(C)(C(C)C)C(=O)N2)c(C(=O)O)c1 (centres unmarked) [imazethapyr] ?
Given back: 97.1

Asked: # query: Biomass Reduction of entry COc1cc(Cl)nc(NC(=O)NS(=O)(=O)c2ccccc2C(=O)O)n1 [chlorimuron]
Given back: 98.6

Asked: I would be grateful if you could share the reported Biomass Reduction for COc1nc(C)nc(NC(=O)NS(=O)(=O)c2ccsc2C(=O)O)n1 [thifensulfuron] .
Given back: 98.8

* * *

Please respond with reported Visual Control for every item in the list.
System: R11-AMACH smooth pigweed
Assay: Greenhouse screen of ALS-inhibiting herbicides on resistant smooth pigweed biotype
Type: in vivo, Amaranthus hybridus L.
Conditions: rate 10×, 3 WAT, scale 0-99%
# number only, unit % dropped from output

Asked: // returns reported Visual Control for input COc1nc(C)nc(NC(=O)NS(=O)(=O)c2ccsc2C(=O)O)n1
Given back: 38

Asked: Form field: reported Visual Control of CCOc1nc(F)cc2nc(S(=O)(=O)Nc3c(Cl)cccc3C(=O)OC)nn12
Given back: 39

Asked: Bench note: what Visual Control did CCc1cnc(C2=NC(C)(C(C)C)C(=O)N2)c(C(=O)O)c1 (centres unmarked) show?
Given back: 62

Asked: Bench note: what Visual Control did COc1cc(OC)nc(Sc2cccc(Cl)c2C(=O)O)n1 show?
Given back: 48

Asked: // returns reported Visual Control for input COc1cc(Cl)nc(NC(=O)NS(=O)(=O)c2ccccc2C(=O)O)n1
Given back: 18

* * *

I'd appreciate it if you could supply Height values for the items below.
Test system: S-AMACH smooth pigweed
Assay: Greenhouse screen of ALS-inhibiting herbicides on susceptible smooth pigweed biotype
Type: in vivo, Amaranthus hybridus L.
Conditions: rate 100×, 3 WAT
The response must be a number in cm with no trailing unit.

Asked: Which Height reading was recorded for the molecule CCOc1nc(F)cc2nc(S(=O)(=O)Nc3c(Cl)cccc3C(=O)OC)nn12 ?
Given back: 0.0

Asked: Entry CCc1cnc(C2=NC(C)(C(C)C)C(=O)N2)c(C(=O)O)c1 (stereo not drawn) : reported Height = ?
Given back: 2.3

Asked: Please look up its Height: COc1cc(OC)nc(Sc2cccc(Cl)c2C(=O)O)n1
Given back: 0.5

meta.source: patent US20060130172A1
